Hey, just so you know, these numbers are from paper PMC10786891.

Target: T1, EsCas13d, nuclease-dead (Eubacterium siraeum, UniProt B0MS50, R295A;H300A;R849A;H854A)
T1 sequence: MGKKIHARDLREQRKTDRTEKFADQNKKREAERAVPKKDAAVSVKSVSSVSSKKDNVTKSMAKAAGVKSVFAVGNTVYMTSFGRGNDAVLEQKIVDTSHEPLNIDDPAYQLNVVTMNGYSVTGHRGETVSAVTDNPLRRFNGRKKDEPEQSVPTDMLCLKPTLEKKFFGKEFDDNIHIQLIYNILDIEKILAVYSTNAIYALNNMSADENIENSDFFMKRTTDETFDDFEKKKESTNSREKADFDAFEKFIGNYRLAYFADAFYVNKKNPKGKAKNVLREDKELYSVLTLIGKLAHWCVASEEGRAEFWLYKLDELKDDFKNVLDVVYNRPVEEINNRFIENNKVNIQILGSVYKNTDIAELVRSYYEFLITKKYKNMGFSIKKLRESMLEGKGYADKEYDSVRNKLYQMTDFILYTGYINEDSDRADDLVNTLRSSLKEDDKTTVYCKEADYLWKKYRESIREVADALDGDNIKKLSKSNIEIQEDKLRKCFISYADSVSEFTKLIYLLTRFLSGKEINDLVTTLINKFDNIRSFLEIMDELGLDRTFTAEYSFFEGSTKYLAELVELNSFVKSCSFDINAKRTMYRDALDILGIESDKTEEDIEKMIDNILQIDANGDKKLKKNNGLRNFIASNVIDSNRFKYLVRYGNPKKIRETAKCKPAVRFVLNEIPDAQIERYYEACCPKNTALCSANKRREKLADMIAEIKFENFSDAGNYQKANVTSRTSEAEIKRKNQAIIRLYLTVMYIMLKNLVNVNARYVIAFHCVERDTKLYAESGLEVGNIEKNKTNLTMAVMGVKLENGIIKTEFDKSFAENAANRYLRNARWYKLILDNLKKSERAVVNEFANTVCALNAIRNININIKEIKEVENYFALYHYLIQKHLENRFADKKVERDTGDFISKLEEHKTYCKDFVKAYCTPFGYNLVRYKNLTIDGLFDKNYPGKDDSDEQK
Test: crRNA (strand 1, pre-loaded); Mg2+; 40 mM Tris-HCl pH 7.5, 150 mM NaCl, 6 mM MgCl2, 1 mM DTT, 0.1% Tween-20, 0.2 mg/ml BSA; 25 C; 10 min per concentration, then washed
Conditions: tags: His6-TwinStrep-SUMO cleaved; N-terminal SNAP kept (SNAP-Surface 488); label: 3' end held by stalled T7 RNA polymerase
OUTCOME_MEASURE: pKd
Scale note: pKd = -log10(concentration in M).

Previously resolved entries follow.
target 2 MT 5'PFS CAU 3'PFS AAU (mixed) RNA 1: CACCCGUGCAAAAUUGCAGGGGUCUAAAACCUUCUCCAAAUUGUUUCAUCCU RNA 2: GGGAAUGGAUCCACAUCUACGAAUUCCAUAGGAUGAAACAAUUUGGAGAAGAAUAGAUCGGAAGAGCACACGU	8.36
target 2 MT 5'PFS GGU 3'PFS CGG (mixed) RNA 1: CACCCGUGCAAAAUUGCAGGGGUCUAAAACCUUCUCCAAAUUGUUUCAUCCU RNA 2: GGGAAUGGAUCCACAUCUACGAAUUCGGUAGGAUGAAACAAUUUGGAGAAGCGGAGAUCGGAAGAGCACACGU	7.81

[ask] Which pKd is reported for this binder? target 1 G12U,G13C (mixed) RNA 1: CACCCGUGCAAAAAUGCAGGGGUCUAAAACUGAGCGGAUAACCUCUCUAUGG RNA 2: GGGAAUGGAUCCACAUCUACGAAUUCGUACCAUAGAGACUUUAUCCGCUCACCGAGAUCGGAAGAGCACACGU
[reply] 7.76

[ask] Which pKd is reported for this binder? target 1 C6G,C22G (mixed) RNA 1: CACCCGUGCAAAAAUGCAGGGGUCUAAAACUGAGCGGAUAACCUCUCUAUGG RNA 2: GGGAAUGGAUCCACAUCUACGAAUUCGUAGCAUAGAGAGGUUAUCGGCUCACCGAGAUCGGAAGAGCACACGU
[reply] 7.46
